# MEASURED TARGET: PAK1 (Homo sapiens, UniProt Q13153)
# Sequence (Q13153 whole entry): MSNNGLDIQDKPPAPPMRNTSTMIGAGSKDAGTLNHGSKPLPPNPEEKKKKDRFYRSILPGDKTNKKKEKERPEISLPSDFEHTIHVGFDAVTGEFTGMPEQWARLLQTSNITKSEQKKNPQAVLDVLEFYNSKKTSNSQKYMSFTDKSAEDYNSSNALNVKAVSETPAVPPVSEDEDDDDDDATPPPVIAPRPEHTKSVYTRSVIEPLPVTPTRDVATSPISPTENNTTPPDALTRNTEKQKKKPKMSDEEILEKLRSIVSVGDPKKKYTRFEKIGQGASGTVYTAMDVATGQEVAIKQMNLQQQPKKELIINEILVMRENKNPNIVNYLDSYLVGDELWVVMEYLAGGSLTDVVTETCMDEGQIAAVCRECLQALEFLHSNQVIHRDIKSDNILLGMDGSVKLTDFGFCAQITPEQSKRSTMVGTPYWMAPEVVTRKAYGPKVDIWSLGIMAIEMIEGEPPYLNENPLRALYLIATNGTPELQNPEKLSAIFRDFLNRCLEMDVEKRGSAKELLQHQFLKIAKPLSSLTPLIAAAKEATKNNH
# EXPERIMENT NOTES: Z'Lyte fluorescence-based (FRET) PAK kinase assay, PAK1
# Type: biochemical
# SETUP CONDITIONS: Table 1 of Example 29 (own compound numbering); 50 μM ATP
# Method: A fluorescence-based assay format is used to determine IC50 values of test compounds in vitro. Purified PAK kinase is incubated with ATP, and a test compound at various concentrations and a substrate peptide containing two fluorophores. […] Plates are analyzed in a standard fluorescence plate reader (Tecan or equivalent) using an excitation wavelength of 400 nn and emission wavelengths of 445 nm and 520 nm. Inhibition of kinase reaction is determined by emission ratio=emission@445 nm/emission@520 nm […]
pIC50: −log10 of the molar value.
READOUT NAME: pIC50

Below are worked cases with known answers.
COc1ccc(Cn2c(=O)ccc3cnc(Nc4ccc(N5CCN(C)CC5)cc4)nc32)cc1 [compound 83] :: < 5.00
Cc1cc(Nc2nccc(-c3ccc(NCCN)nc3)n2)ccc1N1CCN(C)CC1 [Compound 152] :: > 6.00

Task item: Assign pIC50 to the following record: CN1CCN(c2ccc(Nc3ncc4ccc(=O)n(Cc5c(F)cccc5[S+](C)[O-])c4n3)cc2)CC1 (stereo not shown) [Compound 139]
Reply: > 6.00

Task item: Assign pIC50 to the following record: CN1CCN(c2ccc(Nc3ncc4ccc(=O)n(Cc5ccccc5OC(F)(F)F)c4n3)cc2)CC1 [compound 95]
Reply: > 6.00

Task item: Assign pIC50 to the following record: CSc1cccc(F)c1Cn1c(=O)ccc2cnc(Nc3ccc(N4CCN(C)CC4)cc3)nc21 [Compound 138]
Reply: > 6.00

Task item: Assign pIC50 to the following record: CN1CCN(c2ccc(Nc3ncc4ccc(=O)n(Cc5ccccc5C#N)c4n3)cc2)CC1 [compound 94]
Reply: > 6.00

Task item: Assign pIC50 to the following record: CN1CCN(c2ccc(Nc3ncc4ccc(=O)n(Cc5ccc(Cl)cc5)c4n3)cc2)CC1 [compound 84]
Reply: 5.00 to 6.00

====

# MEASURED TARGET: PAK1 (Homo sapiens)
# EXPERIMENT NOTES: Z'Lyte fluorescence-based (FRET) PAK kinase assay, PAK1
# Format: biochemical
# SETUP CONDITIONS: Table 1 of Example 100; 50 μM ATP
This section presents compounds with their documented IC50 values.

Below are worked cases with known answers.
Cc1ccccc1Cn1c(=O)ccc2cnc(Nc3ccc(N4CCN(C)CC4)cc3)nc21 :: < 1000 nM
COc1ccc(Cn2c(=O)ccc3cnc(Nc4ccc(N5CCN(C)CC5)cc4)nc32)cc1 :: > 10000 nM

Task item: Assign IC50 to the following record: CN1CCN(c2ccc(Nc3ncc4ccc(=O)n(C5CCCc6ccccc65)c4n3)cc2)CC1 (centres unmarked)
Reply: 1000 to 10000 nM

Task item: Assign IC50 to the following record: O=c1ccc2cnc(Nc3ccc(OC4CCCNC4)cc3)nc2n1Cc1ccccc1C(F)(F)F (centres unmarked)
Reply: < 1000 nM

Task item: Assign IC50 to the following record: CN1CCN(c2ccc(Nc3ncc4ccc(=O)n(C5CCc6ccccc6C5)c4n3)cc2)CC1 (centres unmarked)
Reply: < 1000 nM

Task item: Assign IC50 to the following record: CN1CCN(c2ccc(Nc3ncc4ccc(=O)n(Cc5ccncc5)c4n3)cc2)CC1
Reply: 1000 to 10000 nM

Task item: Assign IC50 to the following record: CN1CCN(c2ccc(Nc3ncc4ccc(=O)n(C5Cc6ccccc6C5)c4n3)cc2)CC1
Reply: < 1000 nM
